measurement.target: Alpha-2A adrenergic receptor (Homo sapiens); note: assay procedure not described here
Sequence (P08913 whole entry): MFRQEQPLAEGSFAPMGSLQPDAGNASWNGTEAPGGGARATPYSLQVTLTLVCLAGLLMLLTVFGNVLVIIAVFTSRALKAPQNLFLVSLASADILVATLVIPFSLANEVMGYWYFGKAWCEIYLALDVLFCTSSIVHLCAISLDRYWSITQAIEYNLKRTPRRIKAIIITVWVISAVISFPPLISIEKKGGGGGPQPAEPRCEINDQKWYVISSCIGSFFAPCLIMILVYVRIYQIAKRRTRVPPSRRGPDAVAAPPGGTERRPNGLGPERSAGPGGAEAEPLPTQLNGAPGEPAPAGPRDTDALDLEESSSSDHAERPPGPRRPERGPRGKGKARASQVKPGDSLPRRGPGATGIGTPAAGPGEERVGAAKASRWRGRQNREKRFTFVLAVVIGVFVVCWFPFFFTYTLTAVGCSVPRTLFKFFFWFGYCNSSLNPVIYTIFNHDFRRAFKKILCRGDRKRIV
Type: functional, cell-based
experimental.readout: AC50

- CCOc1cc([C@@H](CS(C)(=O)=O)N2C(=O)c3cccc(NC(C)=O)c3C2=O)ccc1OC: > 30 µM
- COc1ccc2cc(CCC(C)=O)ccc2c1 [NABUMETONE]: > 10 µM
- CC(C)C[C@H](NC(=O)[C@@H](O)[C@H](N)Cc1ccccc1)C(=O)O [UBENIMEX]: > 30 µM

With those in mind, consider the next molecule.
Fill blank: measured AC50 of the molecule CCOC(=O)C1=C(C)NC(C)=C(C(=O)OCC)C1c1ccccc1/C=C/C(=O)OC(C)(C)C [LACIDIPINE] is ____.
> 30 µM

====

Recorded AC50, one value per entry.
measurement.target: UniProtKB P0DMS8
Sequence (P0DMS8 whole entry): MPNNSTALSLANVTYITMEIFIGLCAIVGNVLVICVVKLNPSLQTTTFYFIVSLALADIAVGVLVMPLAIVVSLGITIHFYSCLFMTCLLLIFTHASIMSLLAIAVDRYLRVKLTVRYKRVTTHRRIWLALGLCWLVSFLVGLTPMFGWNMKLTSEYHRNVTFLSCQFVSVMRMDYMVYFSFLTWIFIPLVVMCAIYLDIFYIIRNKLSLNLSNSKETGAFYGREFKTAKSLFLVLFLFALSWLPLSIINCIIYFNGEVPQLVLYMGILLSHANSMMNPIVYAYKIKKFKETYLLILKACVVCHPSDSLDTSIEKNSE

For orientation, consider the following solved cases.
• CCOC(=O)c1c(CSc2ccccc2)n(C)c2cc(Br)c(O)c(CN(C)C)c12 = > 30 µM
• C[C@@H]1C[C@H]2[C@@H]3C[C@H](F)C4=CC(=O)C=C[C@]4(C)[C@@]3(F)[C@@H](O)C[C@]2(C)[C@@]1(OC(=O)c1ccco1)C(=O)SCF [FLUTICASONE FUROATE] = > 10 µM
• O=C(O)c1cccnc1Nc1cccc(C(F)(F)F)c1 = > 10 µM
• CCC(NC(C)C)C(O)c1ccc(O)c2[nH]c(=O)ccc12 (stereo not given) = > 30 µM
• CN(C)CCCN1c2ccccc2CCc2ccccc21 = 30.8 µM
• CCOC(=O)c1ccc(N)cc1 = > 10 µM

I would be grateful if you could share the reported AC50 for COc1cc(C(C)=O)ccc1OCCCN1CCC(c2noc3cc(F)ccc23)CC1 .
> 30 µM

Endpoint output: AC50 of O=C1Cc2cc(CCN3CCN(c4nsc5ccccc45)CC3)c(Cl)cc2N1 . Value?
> 30 µM

Need AC50 of CC1=C(C(=O)OC(C)C)C(c2cccc([N+](=O)[O-])c2)C(C(=O)OC2CN(C(c3ccccc3)c3ccccc3)C2)=C(N)N1 (stereo not given) , thanks.
2.2 µM

Entry under review: CCN1CC(CCN2CCOCC2)C(c2ccccc2)(c2ccccc2)C1=O (stereo not given) . Reported AC50?
> 30 µM

# lookup: AC50 of NC(=O)NC(=O)Cc1ccccc1 [PHENACEMIDE]
> 10 µM

What does the record list as AC50 for C=C1c2cccc(O)c2C(=O)C2=C(O)[C@]3(O)C(=O)C(C(N)=O)=C(O)[C@@H](N(C)C)[C@@H]3[C@@H](O)[C@H]12 ?
> 30 µM

====

AC50 by entry:
measurement.target: Vasopressin V2 receptor (Homo sapiens); note: assay procedure not described here
Sequence (P30518 whole entry): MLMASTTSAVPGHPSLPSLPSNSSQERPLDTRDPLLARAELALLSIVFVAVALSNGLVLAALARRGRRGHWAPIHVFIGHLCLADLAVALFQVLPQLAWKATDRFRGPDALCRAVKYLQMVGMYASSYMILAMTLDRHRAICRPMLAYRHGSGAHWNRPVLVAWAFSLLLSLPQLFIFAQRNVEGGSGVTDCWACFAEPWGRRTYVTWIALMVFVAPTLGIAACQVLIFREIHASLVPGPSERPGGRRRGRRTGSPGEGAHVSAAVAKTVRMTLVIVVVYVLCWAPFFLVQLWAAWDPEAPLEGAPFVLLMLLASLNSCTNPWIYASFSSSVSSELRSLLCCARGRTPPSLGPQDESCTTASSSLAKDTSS

- Cc1ccccc1N1C(=O)c2cc(S(N)(=O)=O)c(Cl)cc2NC1C (centres undefined): > 10 µM

Requested read-out AC50, target or system Vasopressin V2 receptor (Homo sapiens), entry CCc1nc(N)nc(N)c1-c1ccc(Cl)cc1; note: assay procedure not described here
> 10 µM

Reported AC50 for Vasopressin V2 receptor (Homo sapiens), given CCC(=O)O[C@](Cc1ccccc1)(c1ccccc1)[C@H](C)CN(C)C ?
> 30 µM

Which measured AC50 belongs to CNCCc1ccc(OC(=O)C(C)C)c(OC(=O)C(C)C)c1 , tested on Vasopressin V2 receptor (Homo sapiens)?; note: assay procedure not described here
> 30 µM

====

Endpoint: AC50. System: Sodium-dependent dopamine transporter (Homo sapiens). Items follow. Note: assay procedure not described here.
Sequence (Q01959 whole entry): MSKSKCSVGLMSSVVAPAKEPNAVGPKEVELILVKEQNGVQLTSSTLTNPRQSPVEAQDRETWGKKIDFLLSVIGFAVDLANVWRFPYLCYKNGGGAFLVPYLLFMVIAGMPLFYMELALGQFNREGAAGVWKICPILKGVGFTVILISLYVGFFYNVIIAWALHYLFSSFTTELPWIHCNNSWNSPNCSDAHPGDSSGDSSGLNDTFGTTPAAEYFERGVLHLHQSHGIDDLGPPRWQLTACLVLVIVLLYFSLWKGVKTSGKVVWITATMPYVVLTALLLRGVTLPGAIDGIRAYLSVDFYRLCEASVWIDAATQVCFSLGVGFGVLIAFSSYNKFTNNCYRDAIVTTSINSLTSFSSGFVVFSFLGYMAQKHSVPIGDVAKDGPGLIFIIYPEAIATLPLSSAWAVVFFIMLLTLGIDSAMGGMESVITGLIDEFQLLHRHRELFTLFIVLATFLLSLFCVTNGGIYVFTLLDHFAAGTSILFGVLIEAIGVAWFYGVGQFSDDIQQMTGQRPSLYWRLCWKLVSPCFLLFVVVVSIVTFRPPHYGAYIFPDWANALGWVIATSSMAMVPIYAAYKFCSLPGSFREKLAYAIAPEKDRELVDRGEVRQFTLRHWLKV

- Oc1cc(O)c(Cl)cn1: > 30 µM
- CC=CC1=C(C(=O)O)N2C(=O)[C@@H](NC(=O)[C@H](N)c3ccc(O)cc3)[C@H]2SC1: > 30 µM
- O=C1Cc2cc(CCN3CCN(c4nsc5ccccc45)CC3)c(Cl)cc2N1: 5.11 µM
- Cc1nc(Nc2ncc(C(=O)Nc3c(C)cccc3Cl)s2)cc(N2CCN(CCO)CC2)n1: 25.3 µM
- CC(C)[C@H](N)C(=O)OCCOCn1cnc2c(=O)[nH]c(N)nc21: > 10 µM
- Cc1ccc(C)c(OCCCC(C)(C)C(=O)O)c1: > 10 µM

Request the reported AC50 associated with CN[C@@H](C)[C@@H](O)c1ccccc1
> 10 µM

Would you kindly share the measured AC50 for CCc1cc2c(s1)-n1c(C)nnc1CN=C2c1ccccc1Cl ?
> 30 µM

// AC50 lookup, key: CCCN1CC(NS(=O)(=O)N(CC)CC)CC2Cc3c(O)cccc3CC21 (centres undefined) [QUINAGOLIDE]
> 30 µM

====

measurement.target: 5-hydroxytryptamine receptor 1A (Homo sapiens, UniProt P08908); note: assay procedure not described here
Sequence (P08908 whole entry): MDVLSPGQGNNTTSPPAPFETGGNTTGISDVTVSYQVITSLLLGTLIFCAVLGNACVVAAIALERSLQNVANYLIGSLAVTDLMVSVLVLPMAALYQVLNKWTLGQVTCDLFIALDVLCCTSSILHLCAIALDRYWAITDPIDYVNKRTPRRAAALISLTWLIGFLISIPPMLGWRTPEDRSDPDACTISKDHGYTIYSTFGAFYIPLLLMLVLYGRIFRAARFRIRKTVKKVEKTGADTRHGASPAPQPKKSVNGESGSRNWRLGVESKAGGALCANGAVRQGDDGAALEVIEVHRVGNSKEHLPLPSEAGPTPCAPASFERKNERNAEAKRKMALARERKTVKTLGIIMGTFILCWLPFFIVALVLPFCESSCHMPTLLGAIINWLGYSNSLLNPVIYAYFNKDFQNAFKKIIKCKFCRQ
Assay type: functional, cell-based
experimental.readout: AC50

Name the reported AC50 value associated with the compound CC(C)NC[C@H](O)COc1ccc(CC(N)=O)cc1
> 10 µM

I'd like to know its AC50. The compound in question is CN(Cc1cnc2nc(N)nc(N)c2n1)c1ccc(C(=O)N[C@@H](CCC(=O)O)C(=O)O)cc1 [METHOTREXATE]
> 10 µM

Please give the measured AC50 for this compound: CCOC(=O)c1c(CSc2ccccc2)n(C)c2cc(Br)c(O)c(CN(C)C)c12
> 30 µM

Entry CCCCOc1ccc(C(=O)CCN2CCCCC2)cc1 has what AC50?
> 10 µM

Using the record for NS(=O)(=O)c1cc2c(cc1Cl)N=C(CSCc1ccccc1)NS2(=O)=O [BENZTHIAZIDE] , report its AC50.
> 10 µM

Return reported AC50; argument: CCC(=O)O[C@](Cc1ccccc1)(c1ccccc1)[C@H](C)CN(C)C
> 10 µM

Find the recorded AC50 belonging to CCOC(=O)c1ccc(N)cc1 and report it.
> 10 µM

Item under review: O=C(O)COCCN1CCN(C(c2ccccc2)c2ccc(Cl)cc2)CC1 (configuration not stated) . Reported AC50?
> 10 µM

Entry Oc1cc(O)c(Cl)cn1 : reported AC50 = ?
> 30 µM

Quick one: AC50 of CC(C)C[C@H](NC(=O)[C@@H](O)[C@H](N)Cc1ccccc1)C(=O)O ?
> 30 µM

Give the measured AC50 of CC(CN(C)C)C(C)(O)Cc1ccc(Cl)cc1 (configuration not stated) .
> 10 µM

I have this compound here, Fc1ccc([C@@H]2CCNC[C@H]2COc2ccc3c(c2)OCO3)cc1 , and I need its recorded AC50.
17 µM

# AC50 lookup, item Cc1onc(-c2c(F)cccc2Cl)c1C(=O)N[C@@H]1C(=O)N2[C@@H]1SC(C)(C)[C@@H]2C(=O)O
> 30 µM

Query: AC50; subject: CC(C)(C)NCC(O)c1ccccc1Cl (configuration not stated)
> 30 µM

Tell me the measured AC50 of O=C1OC(OC(=O)c2cccnc2Nc2cccc(C(F)(F)F)c2)c2ccccc21 (configuration not stated) [TALNIFLUMATE] , please.
> 30 µM

Entry under review: CO/N=C(\C(=O)N[C@@H]1C(=O)N2C(C(=O)O)=CCS[C@H]12)c1csc(N)n1 . Reported AC50?
> 30 µM

Give the measured AC50 of Cc1cc(=O)n(-c2ccccc2)n1C [ANTIPYRINE] .
> 30 µM

# input compound: C[C@]12C/C(=C/O)C(=O)C[C@@H]1CC[C@@H]1[C@@H]2CC[C@@]2(C)[C@H]1CC[C@]2(C)O ; wanted: its AC50
> 30 µM

====

measurement.target: Progesterone receptor (Homo sapiens); note: assay procedure not described here
Sequence (P06401 whole entry): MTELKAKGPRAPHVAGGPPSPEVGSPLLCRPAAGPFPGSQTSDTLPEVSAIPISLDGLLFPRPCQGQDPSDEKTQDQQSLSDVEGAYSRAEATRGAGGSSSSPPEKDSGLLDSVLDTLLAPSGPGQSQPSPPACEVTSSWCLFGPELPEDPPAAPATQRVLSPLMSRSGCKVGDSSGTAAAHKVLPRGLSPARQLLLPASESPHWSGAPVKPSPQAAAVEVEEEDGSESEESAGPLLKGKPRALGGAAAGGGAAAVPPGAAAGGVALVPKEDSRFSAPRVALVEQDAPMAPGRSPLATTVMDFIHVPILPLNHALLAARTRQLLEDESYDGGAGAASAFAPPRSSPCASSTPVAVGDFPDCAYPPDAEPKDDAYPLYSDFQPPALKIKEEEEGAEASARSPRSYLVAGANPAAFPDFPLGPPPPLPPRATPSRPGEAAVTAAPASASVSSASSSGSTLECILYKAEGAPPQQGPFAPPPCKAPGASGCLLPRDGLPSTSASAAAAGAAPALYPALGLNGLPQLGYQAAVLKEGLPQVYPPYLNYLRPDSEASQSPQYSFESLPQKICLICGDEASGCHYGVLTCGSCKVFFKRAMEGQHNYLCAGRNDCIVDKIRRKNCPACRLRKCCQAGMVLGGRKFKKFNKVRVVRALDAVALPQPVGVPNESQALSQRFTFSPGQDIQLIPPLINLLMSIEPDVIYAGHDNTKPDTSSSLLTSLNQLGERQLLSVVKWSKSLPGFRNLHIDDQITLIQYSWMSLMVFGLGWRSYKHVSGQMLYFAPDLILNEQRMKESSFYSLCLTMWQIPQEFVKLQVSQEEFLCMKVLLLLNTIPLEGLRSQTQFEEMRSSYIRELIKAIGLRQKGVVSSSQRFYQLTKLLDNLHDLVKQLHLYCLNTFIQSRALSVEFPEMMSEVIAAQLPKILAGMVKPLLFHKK
Format: functional
experimental.readout: AC50

Report AC50 for COc1ccc(C2C(=O)c3ccccc3C2=O)cc1 [ANISINDIONE] please.
> 30 µM
